Reference for the values: paper PMC6736568

Experiment description: in vitro
Kind request: treat -10% as inclusive, so cytotoxicity at 10 µM at -10% or higher is Condition met, anything lower is Condition not met.

Illustrative cases are given below, each with its answer.
| Compound | Answer label |
| --- | --- |
| C[C@H]1O[C@@H](O[C@H]2[C@@H](O)C[C@H](O[C@H]3[C@@H](O)C[C@H](O[C@H]4CC[C@@]5(C)[C@H](CC[C@@H]6[C@@H]5CC[C@]5(C)[C@@H](C7=CC(=O)OC7)CC[C@]65O)C4)O[C@@H]3C)O[C@@H]2C)C[C@H](O)[C@@H]1O | Condition met |
| c1cncc(C2=NCCC2)c1 | Condition met |
| COc1ccc2c(c1)OC/C(=C/c1ccc(OC)c(OC)c1)C2=O | Condition met |
| C[N+]12CC[C@@]34c5ccccc5N5C(=O)C[C@@H]6OCC=C(C1)[C@H](C[C@@H]32)[C@@H]6[C@H]54 (some centres unmarked) [[…]] | Condition met |
| COC1=CC(=O)O[C@@H](/C=C/c2ccccc2)C1 | Condition not met |

Task: Answer whether cytotoxicity at 10 µM of "NCCc1ccc(O)cc1" is greater than or equal to -10%.
Result: Condition not met

Task: Identify whether the reported cytotoxicity at 10 µM of the following compound is -10% or greater: "COc1cc2c(c(OC)c1OC)-c1ccc(=O)c(O)cc1[C@@H](NC(C)=O)CC2"
Result: Condition not met

----------
System: Cryptosporidium parvum
Experiment description: qRT-PCR assay of the growth of C. parvum in vitro in HCT-8 host cells (primary and secondary screening, EC50)
Type: cell-based
Applied conditions: primary screening at 10 uM
Parameter: Inhibition (%)
Form entry: value (%) — number only.

Guide cases for Inhibition (%), answers given:
| Compound | Unit abbreviation | Recorded measurement |
| --- | --- | --- |
| OC[C@@H](O)C(O)[C@H](O)CO | % | 8.73 |
| COc1cc(O)c(C(C)=O)c(O)c1 | % | 2.57 |
| CC1=CC(=O)CC(C)(C)C1(O)/C=C/C(C)=C\C(=O)O (racemic) [ABSCISIC ACID (cis,trans; +/-)] | % | -7.09 |
| O=c1cc(-c2ccc(O)cc2)oc2ccc(O)cc12 [6,4'-DIHYDROXYFLAVONE] | % | 28.18 |
| Cc1cc2nc3c(=O)[nH]c(=O)nc-3n(C[C@H](O)[C@H](O)[C@H](O)COP(=O)([O-])O)c2cc1C.[Na+] [RIBOFLAVIN 5-PHOSPHATE SODIUM] | % | -3.47 |
| COc1cc2c(cc1OC)-c1c(oc3cc(O)cc(O)c3c1=O)CO2 | % | 1.64 |
| N[C@@H](CSCSC[C@H](N)C(=O)O)C(=O)O | % | 23.33 |
| O=C(O)[C@H](O)[C@@H](O)[C@H](O[C@@H]1O[C@H](CO)[C@H](O)[C@H](O)[C@H]1O)[C@H](O)CO | % | -17.48 |
| CC(C)=CCC/C(C)=C/CC/C(C)=C/CC/C(C)=C/CC/C(C)=C/CC/C(C)=C/CC/C(C)=C/CC/C(C)=C/CC/C(C)=C/CO | % | -25.87 |
| CC(C)c1c(O)c(-c2cc3c(c(C(C)C)c2O)CCC2C(C)(C)CCC[C@]32C)cc2c1CCC1C(C)(C)CCC[C@]21C (stereo partly shown) | % | -4.91 |

Measured Inhibition (%), CCCCCCCCCCCCCCCCC(C(=O)O)C(O)(CC(=O)O)C(=O)O (stereo not shown) : -4.50

Per the record, "COC(=O)C1=CO[C@@H](C)[C@H]2CN3CC[C@]4(C(=O)Nc5ccccc54)[C@@H]3C[C@H]12" has Inhibition (%) of 41.31

Entry under test: "O=c1c(O)c(-c2ccc(O)c(O)c2)oc2c(O[C@@H]3O[C@H](CO)[C@@H](O)[C@H](O)[C@H]3O)c(O)cc(O)c12" . Its Inhibition (%) was -22.05

// "COc1cc2c(cc1-c1cc3cc4ccoc4cc3oc1=O)OCO2" : Inhibition (%) value = 29.77

Lab note: C[C@@H]1CC[C@@]2(OC1)O[C@H]1C[C@H]3[C@@H]4CC[C@H]5C[C@@H](O)CC[C@]5(C)C4=CC[C@]3(C)[C@H]1[C@@H]2C [3beta-HYDROXYISOALLOSPIROST-9(11)-ENE] gave Inhibition (%) of 6.79

Data point: "O=c1cc(-c2ccccc2)oc2cccc(O)c12" ; Inhibition (%) = -14.55

compound "NC(=O)CC[C@H](N)C(=O)O" , Inhibition (%) observed: 2.46

# Inhibition (%) (compound: "COc1cc(OC)c2c(=O)c(OC)c(-c3ccccc3)oc2c1" ) is -18.22

// recorded Inhibition (%) for C[C@H](CC(=O)[C@@H]1OC1(C)C)[C@H]1C(=O)C[C@@]2(C)C3=CC[C@H]4C(C)(C)[C@@H](O[C@@H]5OC[C@@H](O)[C@H](O)[C@H]5O)CC[C@@]45C[C@@]35[C@@H](O)C[C@]12C [CIMICIFUGOSIDE H1] : 58.34

Value of measured Inhibition (%) for the entry "C=CCSC[C@H](N)C(=O)O" : 38.80

The reported Inhibition (%) of the compound CC(=O)O[C@@H]1C[C@]2(C)[C@@H](C(C)=O)CC[C@H]2[C@@H]2CCC3=CC(=O)CC[C@]3(C)[C@H]21 [11a-ACETOXYPROGESTERONE] was 10.83

Recorded result, "COc1ccc(-c2coc3cc(O)cc(O)c3c2=O)cc1" , Inhibition (%): 14.14

According to the records, this compound "COC(=O)C1=CO[C@@H](O[C@@H]2O[C@H](CO)[C@@H](O)[C@H](O)[C@H]2O)[C@H]2[C@@H]1C(=O)C[C@@H]2C" displays Inhibition (%) of -4.48

Field Inhibition (%) (entry "COc1ccc(/C=C/c2cc(O)cc(O[C@@H]3O[C@H](CO)[C@@H](O)[C@H](O)[C@H]3O)c2)cc1" ) reads 15.82

Just so you know, measured Inhibition (%) for O=c1ccn([C@@H]2O[C@H](COP(=O)([O-])OP(=O)([O-])OP(=O)([O-])O)[C@@H](O)[C@H]2O)c(=O)[nH]1.[Na+].[Na+].[Na+] [URIDINE TRIPHOSPHATE TRISODIUM] came out at 91.48

For "COc1ccc(-c2coc3c4c(c(CC=C(C)C)c(O)c3c2=O)OC(C)(C)C=C4)cc1OC" the compound record lists Inhibition (%) as -58.61

Sample O=C(O[C@@H]1Cc2c(O)cc(O)cc2O[C@@H]1c1ccc(O)c(O)c1)c1cc(O)c(O)c(O)c1 [EPICATECHIN MONOGALLATE] ; Inhibition (%) observed: 6.24

Quick note, Inhibition (%) for "COc1ccc([C@@H]2CC(=O)c3c(O)cc(O[C@@H]4O[C@H](CO[C@@H]5O[C@@H](C)[C@H](O)[C@@H](O)[C@H]5O)[C@@H](O)[C@H](O)[C@H]4O)cc3O2)cc1O" landed at 66.25
